Data origin: patent US20260200947A1

# Test system: SW620 cells (K-Ras G12V)
# Method Summary: Phospho-ERK1/2(THR202/TYR204) HTRF assay, SW620
# Type: cell-based
# Assay Setup: 2 hours incubation, read-out: pERK, IC50, SW620
Output satisfied for records whose IC50 is lower than 10 nM, not satisfied for records at or above 10 nM.

Query block: Check if IC50 falls below 10 nM for C#Cc1c(F)ccc2cc(N)cc(-c3c(Cl)c4c5c(nc(OCC67CCCN6CC(F)C7)nc5c3F)N3CCCOCC3CO4)c12 (single isomer, unassigned) [Compound 11B] .
Result block: not satisfied

Query block: Check if IC50 falls below 10 nM for C#Cc1c(F)ccc2cc(N)cc(-c3nc4c5c(nc(OCC67CCCN6CC(F)C7)nc5c3F)N3C(C)CCOCC3CO4)c12 (centres unmarked) [Compound 38B] .
Result block: satisfied

Query block: Check if IC50 falls below 10 nM for C#Cc1c(F)ccc2cc(N)cc(-c3nc4c5c(nc(OCC67CCCN6CC(F)C7)nc5c3F)N3CCCCCC3CO4)c12 (centres unmarked) [Compound 27B] .
Result block: not satisfied

Query block: Check if IC50 falls below 10 nM for C=Cc1c(F)ccc2cc(N)cc(-c3nc4c5c(nc(OC[C@@]67CCCN6C[C@H](F)C7)nc5c3F)N3CCCOC[C@H]3CO4)c12 .
Result block: not satisfied

Query block: Check if IC50 falls below 10 nM for C#Cc1c(F)ccc2cc(N)cc(-c3nc4c5c(nc(OC[C@@]67CCCN6C[C@H](F)C7)nc5c3F)N3[C@@H](COCC[C@@H]3C)CO4)c12 [Compound 38A] .
Result block: satisfied

Query block: Check if IC50 falls below 10 nM for C#Cc1c(F)ccc2cc(N)cc(-c3nc4c5c(nc(OC[C@@]67CCCN6C[C@H](F)C7)nc5c3F)N3CCCOC[C@H]3[C@H](C)O4)c12 [Compound 18A] .
Result block: not satisfied

Query block: Check if IC50 falls below 10 nM for CCc1c(F)ccc2cc(N)cc(-c3nc4c5c(nc(OC[C@@]67CCCN6C[C@H](F)C7)nc5c3F)N3CCCOC[C@H]3CO4)c12 .
Result block: not satisfied

* * *

# Method Summary: Mouse pharmacokinetic study
# Type: in vivo
# Assay Setup: Balb/c mouse (female), 3 mg/kg, iv, plasma
Cl_obs overview
Note: unit mL/min/kg is implicit; provide only the numeric part.

# count of solved cases: 3
| Molecule | Measurement Name | Measured |
| --- | --- | --- |
| C#Cc1c(F)ccc2cc(N)cc(-c3nc4c5c(nc(OC[C@@]67CCCN6C[C@H](F)C7)nc5c3F)N3CCCOC[C@H]3CO4)c12 | Cl_obs | 6.33 |
| N#Cc1c(N)sc2c(F)ccc(-c3c(Cl)c4c5c(nc(OCC67CCCN6CC(F)C7)nc5c3F)N3CCCOCC3CO4)c12 (single isomer, unassigned) [Compound 66B] | Cl_obs | 5.77 |
| N#Cc1c(N)sc2c(F)ccc(-c3c(F)c4c5c(nc(OC[C@@]67CCCN6C[C@H](F)C7)nc5c3F)N3CCCOC[C@H]3CO4)c12 (single isomer, unassigned) [Compound 163B] | Cl_obs | 1.86 |

What the record says about C#Cc1c(F)ccc2cc(N)cc(-c3nc4c5c(nc(OC[C@@]67CCCN6C[C@H](F)C7)nc5c3F)N3[C@@H](COCC[C@@H]3C)CO4)c12 [Compound 38A] : Cl_obs is 12.7

* * *

# System: GDP-KRAS G12D (Homo sapiens, UniProt P01116, G12D)
# Sequence (P01116 1-169 isoform P01116-2 G12D): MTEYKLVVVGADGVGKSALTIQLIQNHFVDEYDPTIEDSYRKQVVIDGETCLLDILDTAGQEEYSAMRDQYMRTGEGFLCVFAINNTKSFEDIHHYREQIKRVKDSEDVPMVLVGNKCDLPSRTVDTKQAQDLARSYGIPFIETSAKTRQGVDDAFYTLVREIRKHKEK
# Method Summary: biochemical
Output 1 (yes) for records whose IC50 is lower than 10 nM, 0 (no) for records at or above 10 nM.

| Compound | Qualitative Label |
| --- | --- |
| C#Cc1c(F)ccc2cc(N)cc(-c3nc4c5c(nc(OC[C@@]67CCCN6C[C@H](F)C7)nc5c3F)N3C(CCCC[C@@H]3C(C)O)N4C)c12 (stereo partly drawn) | 1 (yes) |
| C#Cc1c(F)ccc2cc(N)cc(-c3nc4c5c(nc(OC[C@@]67CCCN6C[C@H](F)C7)nc5c3F)N3CCCC/C(=C/F)C3N4C)c12 (stereo partly drawn) | 0 (no) |
| C#Cc1c(F)ccc2cc(N)cc(-c3nc4c5c(nc(OC[C@@]67CCCN6C[C@H](F)C7)nc5c3F)N3C(C(F)F)CCOCC3N4C)c12 (stereo partly drawn) | 1 (yes) |

Query block: Check if IC50 falls below 10 nM for C#Cc1c(F)ccc2cc(N)cc(-c3nc4c5c(nc(OC[C@@]67CCCN6C[C@H](F)C7)nc5c3F)N3CCCOCC3N4C(C)=O)c12 (stereo partly drawn) .
Result block: 0 (no)

Query block: Check if IC50 falls below 10 nM for C#Cc1c(F)ccc2cc(N)cc(-c3nc4c5c(nc(OC[C@@]67CCCN6C[C@H](F)C7)nc5c3F)N3CCOCCC3N4C)c12 (stereo partly drawn) .
Result block: 1 (yes)

Query block: Check if IC50 falls below 10 nM for C#Cc1c(F)ccc2cc(N)cc(-c3nc4c5c(nc(OC[C@@]67CCCN6C[C@H](F)C7)nc5c3F)N3CCC(F)(F)CCC3N4C)c12 (stereo partly drawn) .
Result block: 0 (no)

* * *

# System: GppNp-KRAS G12D (Homo sapiens, UniProt P01116, G12D)
# Sequence (P01116 1-169 isoform P01116-2 G12D): as above
# Method Summary: biochemical
Measurement Name: IC50 (nM)
Note: unit nM is implicit; provide only the numeric part.

| Compound | IC50, nM |
| --- | --- |
| C#Cc1c(F)ccc2cc(N)cc(-c3nc4c5c(nc(OC[C@@]67CCCN6C[C@H](F)C7)nc5c3F)N3CCOCCC3N4C)c12 (stereo partly drawn) | 295 |
| [2H]C([2H])([2H])N1c2nc(-c3cc(N)cc4ccc(F)c(C#C)c34)c(F)c3nc(OC[C@@]45CCCN4C[C@H](F)C5)nc(c23)N2CCCOC[C@H]21 | 35.8 |
| C#Cc1c(F)ccc2cc(N)cc(-c3nc4c5c(nc(OC[C@@]67CCCN6C[C@H](F)C7)nc5c3F)N3CCC=CC[C@H]3C4=C)c12 | 59.9 |

Record [2H]C1([2H])OCCCN2c3nc(OC[C@@]45CCCN4C[C@H](F)C5)nc4c(F)c(-c5cc(N)cc6ccc(F)c(C#C)c56)nc(c34)N(C)C21 (stereo partly drawn) ; system GppNp-KRAS G12D (Homo sapiens, UniProt P01116, G12D); IC50 = 96.3

Record C#Cc1c(F)ccc2cc(N)cc(-c3nc4c5c(nc(OC[C@@]67CCCN6C[C@H](F)C7)nc5n5c(n4C)=CC=CCC5)c3F)c12 ; system GppNp-KRAS G12D (Homo sapiens, UniProt P01116, G12D); IC50 = 921

Record C#Cc1c(F)ccc2cc(N)cc(-c3nc4c5c(nc(OC[C@@]67CCCN6C[C@H](F)C7)nc5c3F)N3CCCC=C(F)C3N4C)c12 (stereo partly drawn) ; system GppNp-KRAS G12D (Homo sapiens, UniProt P01116, G12D); IC50 = 314

Record C#Cc1c(F)ccc2cc(N)cc(-c3nc4c5c(nc(OC[C@@]67CCCN6C[C@H](F)C7)nc5c3F)N3[C@@H](C)CCOC[C@H]3N4C3CC3)c12 ; system GppNp-KRAS G12D (Homo sapiens, UniProt P01116, G12D); IC50 = 190

Record C#Cc1c(F)ccc2cc(N)cc(-c3nc4c5c(nc(OC[C@@]67CCCN6C[C@H](F)C7)nc5c3F)N3CC(F)CC[C@H](F)[C@H]3N4C)c12 (stereo partly drawn) ; system GppNp-KRAS G12D (Homo sapiens, UniProt P01116, G12D); IC50 = 21.6

Record C#Cc1c(F)ccc2cc(N)cc(-c3nc4c5c(nc(OC[C@@]67CCCN6C[C@H](F)C7)nc5c3F)N3[C@@H](CC)CCOC[C@H]3N4C)c12 ; system GppNp-KRAS G12D (Homo sapiens, UniProt P01116, G12D); IC50 = 224

Record C[C@H]1CCOC[C@H]2N(C)c3nc(-c4cc(O)cc5ccc(F)c(Cl)c45)c(F)c4nc(OC[C@@]56CCCN5C[C@H](F)C6)nc(c34)N12 ; system GppNp-KRAS G12D (Homo sapiens, UniProt P01116, G12D); IC50 = 71.1

* * *

# System: GppNp-KRAS G12D (Homo sapiens, UniProt P01116, G12D)
# Method Summary: GTP-K-Ras and cRAF interaction assay, GppNp-KRAS G12D
# Assay Setup: read-out: Biochemical assays, IC50, KRAS G12D GppNp; GppNp-loaded K-Ras G12D, cRAF RBD interaction, HTRF
pIC50 overview
Formally, pIC50 is defined as -log10 of the concentration c, with c in mol/L.

| Compound | System | Measurement Name | Measured |
| --- | --- | --- | --- |
| CCc1c(F)ccc2cc(N)cc(-c3nc4c5c(nc(OC[C@@]67CCCN6C[C@H](F)C7)nc5c3F)N3CCCOC[C@H]3CO4)c12 | GppNp-KRAS G12D (Homo sapiens, UniProt P01116, G12D) | pIC50 | 6.30 |
| C=Cc1c(F)ccc2cc(N)cc(-c3nc4c5c(nc(OC[C@@]67CCCN6C[C@H](F)C7)nc5c3F)N3CCCOC[C@H]3CO4)c12 | GppNp-KRAS G12D (Homo sapiens, UniProt P01116, G12D) | pIC50 | 6.09 |

Shifting focus to the compound that follows.
What the record says about C#Cc1c(F)ccc2cc(N)cc(-c3nc4c5c(nc(OCC67CCCN6CC(F)C7)nc5c3F)N3CCCCC(F)C3N4C)c12 (stereo not shown) [Compound 40B] : pIC50 is 6.79
